Entries and their clearance
# PROTOCOL_NOTES: Clearance in rat at 1 mg/kg
# Type: ADME, organism-based
# EXPERIMENTAL_CONTEXT: in vivo
VALUE_KIND: clearance (mL/min/kg)

ITEM_SMILES	VALUE_KIND	REPORTED_VALUE
Cn1cnc2ncn(Cc3nn(C[C@H](F)c4ccc(Cl)cc4)c(=O)o3)c(=O)c21	clearance	17
Cn1cnc2ncn(Cc3nc([C@H]4[C@@H]5CN(c6cc(Cl)ccn6)C[C@@H]54)no3)c(=O)c21	clearance	12
Cn1cnc2ncn(Cc3nc([C@@H]4CO[C@@H](c5ccc(Cl)cc5)C4)no3)c(=O)c21	clearance	17
Cn1cnc2ncn(Cc3nc([C@H]4[C@@H]5CN(c6cccc(Cl)c6)C[C@@H]54)no3)c(=O)c21	clearance	4.5
Cc1cnn2ncn(Cc3nc([C@H]4[C@@H]5CN(c6cccc(Cl)c6)C[C@@H]54)no3)c(=O)c12	clearance	15
